Class assignment keyed on log10 vapour pressure (mmHg), ranges low end: < -4; middle: ≥ -4 and < 0.6; high end: ≥ 0.6

1. CCCCCCCC/C=C\CCCCCCCC(=O)OC	low end
2. CC(F)(F)Cl	high end
3. Cc1cc(C)c(C)cc1C	middle
4. C=C(C)CCCC	high end
5. O=C(Nc1ccccc1)Nc1ccnc(Cl)c1	low end
6. C=CC/C=C/C	high end
7. COCc1ccccc1	middle
8. Clc1ccccc1-c1ccccc1	middle
9. CC1CCCC(O)C1 (stereo unspecified)	middle
10. C=CC1(C)OC(=O)N(c2cc(Cl)cc(Cl)c2)C1=O (stereo unspecified)	low end
11. CC(=O)C(Cl)Cl	high end
12. Brc1ccccc1	high end
13. Clc1cc2c(cc1Cl)Oc1c(Cl)c(Cl)c(Cl)c(Cl)c1O2	low end
14. C1CC1	high end
